Source of measurements: patent US20200308299A1

- Target Or Test System: T1, human Glypican-1 (human, UniProt P35052 24-530, limits assumed)
- T1 construct: also called human GPC1
- T1 sequence: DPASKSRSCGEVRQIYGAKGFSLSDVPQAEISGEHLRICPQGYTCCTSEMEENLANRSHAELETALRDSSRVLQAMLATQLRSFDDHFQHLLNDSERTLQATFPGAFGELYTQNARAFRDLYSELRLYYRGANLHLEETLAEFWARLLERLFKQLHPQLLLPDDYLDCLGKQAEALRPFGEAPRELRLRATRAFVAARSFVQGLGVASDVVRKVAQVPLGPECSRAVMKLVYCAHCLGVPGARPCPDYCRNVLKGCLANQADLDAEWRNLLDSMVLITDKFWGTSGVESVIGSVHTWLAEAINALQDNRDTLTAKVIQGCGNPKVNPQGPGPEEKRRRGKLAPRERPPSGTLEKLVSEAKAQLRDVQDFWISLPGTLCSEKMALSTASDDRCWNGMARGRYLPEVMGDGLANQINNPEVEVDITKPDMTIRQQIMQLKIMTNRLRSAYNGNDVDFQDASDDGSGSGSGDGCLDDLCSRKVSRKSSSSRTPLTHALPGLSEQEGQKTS
- Method Notes: phage scFv panning, ELISA on immobilised human GPC1, cell-ELISA and flow cytometry on human GPC1 transformants and TE14 (Example 1)

{"columns": ["Binder", "binding result"],
 "data": [
  ["anti-Glypican-1 antibody clone K090-02a035 (antibody, mouse IgG2a, kappa, V domains shown, Selected as scFv on phage) VH: QVQLQQSGAELVKPGASVKLSCKTSGYTFTSYWMHWVKQRPGQGLEWIGNIDPSDSETHYNQKFKDKATLTVDKSSSTAYMQLSGLTSEDSAVYYCARNLGYWGQGTSVTVSS VL: DIKMTQSPLSLPVSLGDQASISCRSSQSLVHSNGNTYLHWYLQKPGQSPKLLIYKVSNRFSGVPDRFSGSGSGTDFTLKISRVEAEDLGVYFCSQSTHVPYTFGGGTKLEIKR", "binds"],
  ["anti-Glypican-1 antibody clone K090-01a017 (antibody, mouse IgG2a, kappa, V domains shown, Selected as scFv on phage) VH: EVQLQQSGGELVRPGTSVKMSCKAAGYTFTNYWIGWVKQRPGHGLEWIGDLYPGGGYTHYNEKFKGKATLTADTSSSTAYMQLSSLTSEDSAIYYCARERVYFDGSRYFDVWGAGTTVTVSS VL: SIVMTQTPKFLPVSAGDRVTMTCKASQSVGNNVAWYQQKPGQSPKLLIYYASNRYTGVPDRFTGSGSGTDFTFTISSVQVEDLAVYFCQQHYSSPWTFGGGTKLEIKR", "binds"],
  ["anti-Glypican-1 antibody clone K090-01a033 (antibody, mouse IgG2a, kappa, V domains shown, Selected as scFv on phage; also called clone 01a033; anti-GPC1 monoclonal antibody (01a033)) VH: QVQLKQSGPELVKPGASVKISCKASGYSFTGYYMHWVKQSPEKSLEWIGEINPSTGDTTYNQKFKAKATLTVDKSSSTAYMQLKSLTSEDSAVYYCAREKRDDGVFAYWGQGTLVTVSS VL: DIVMSQSPKSMSMSVGERVALSCKASENVGTYVSWYQQKPEQSPKLLIYGASNRYTGVPDRFTGSGSATDFTLTISSVQAEDLADYYCGQSYSYPLTFGAGTKLELKR", "binds"]
]}
